Each recorded value in this set is attributed to the supplement of paper PMC10567573.

B1: ANKRD9 (parent)
chain: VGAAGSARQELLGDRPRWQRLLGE

- Variants of: B1
- test details: protein stability index of a GFP-peptide fusion (GPS, HEK-293T) (PSI 1-6); higher = more stable;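 note: lentivirally expressed fusions sorted by FACS into six bins by GFP to DsRed ratio, PSI derived from sequencing read proportions per bin multiplied by bin number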
- measurement parameters: c terminus: a fixed tail appended
property name: protein stability index

1) L22N; 3.13
2) R8W; 2.35
3) L12S; 4.15
4) L12H; 3.6
5) Q9I; 2.96
6) G23T; 2.98
7) D14M; 2.76
8) E24K; 3.7
9) R17M; 2.72
10) E10Y; 3.03
11) L21W; 3.23
12) D14H; 3.24
13) Q9N; 2.74
14) G2E; 3.29
15) G5K; 2.69
16) R20P; 2.19
17) G23D; 3.84
18) L22W; 2.96
19) V1A; 3.58
20) G23L; 3.58
21) G23N; 3.12
22) A7F; 2.49
